- Target desc: GluA2 (Rattus norvegicus)
- Construct: expressed in transfected cells; host or cells: HEK293T (HEK293) cells, transient co-transfection with a separate EGFP vector
- Sequence (P19491 22-883 isoform P19491-2 limits assumed): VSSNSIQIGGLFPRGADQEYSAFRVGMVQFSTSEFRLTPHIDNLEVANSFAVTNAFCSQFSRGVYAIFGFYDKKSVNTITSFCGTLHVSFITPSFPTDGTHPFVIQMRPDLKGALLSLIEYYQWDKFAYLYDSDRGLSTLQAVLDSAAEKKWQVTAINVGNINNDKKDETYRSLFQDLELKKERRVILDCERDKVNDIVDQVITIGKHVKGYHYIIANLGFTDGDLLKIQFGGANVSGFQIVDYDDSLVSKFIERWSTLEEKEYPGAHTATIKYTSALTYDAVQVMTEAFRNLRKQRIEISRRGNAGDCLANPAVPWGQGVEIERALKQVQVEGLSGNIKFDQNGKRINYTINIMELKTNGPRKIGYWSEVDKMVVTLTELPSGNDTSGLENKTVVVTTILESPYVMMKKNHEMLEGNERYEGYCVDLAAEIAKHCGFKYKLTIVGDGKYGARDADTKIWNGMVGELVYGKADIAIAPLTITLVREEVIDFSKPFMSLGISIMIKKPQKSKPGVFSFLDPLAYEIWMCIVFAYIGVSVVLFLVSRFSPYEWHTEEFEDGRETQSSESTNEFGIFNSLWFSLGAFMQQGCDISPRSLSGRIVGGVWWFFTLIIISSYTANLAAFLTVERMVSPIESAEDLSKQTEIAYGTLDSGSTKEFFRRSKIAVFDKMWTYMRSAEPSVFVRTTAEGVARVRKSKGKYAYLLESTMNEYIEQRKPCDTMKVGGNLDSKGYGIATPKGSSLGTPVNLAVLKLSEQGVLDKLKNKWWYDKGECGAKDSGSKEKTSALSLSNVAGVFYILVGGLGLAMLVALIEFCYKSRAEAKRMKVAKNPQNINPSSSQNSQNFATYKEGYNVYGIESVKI
- Assay overview: Whole-cell patch clamp recordings of homomeric GluA2 AMPA receptor currents and kinetics in transfected HEK293t cells
- Format: cell-based
- Test parameters: 16 µM compound co-applied with agonist, HEK293t, −60 mV, pH 7.4, 22 °C, mean ± SD, n = 10
// boundary case: Amplitude (peak whole-cell current in presence of compound) equal to 200 pA maps to Not satisfied; strictly smaller maps to Satisfied

stdin: hey, is Amplitude (peak whole-cell current in presence of compound) for Cc1onc(-c2c(Cl)cccc2Cl)c1C(=O)Nc1ccc(OC(F)(F)F)cc1 lower than 200 pA or not?
stdout: Not satisfied

stdin: hey, is Amplitude (peak whole-cell current in presence of compound) for COc1cc(NC(=O)c2c(-c3c(Cl)cccc3Cl)noc2C)cc(OC)c1OC lower than 200 pA or not?
stdout: Not satisfied

stdin: hey, is Amplitude (peak whole-cell current in presence of compound) for COc1cc(NC(=O)c2c(-c3c(Cl)cccc3Cl)noc2C)c(OC)cc1Cl lower than 200 pA or not?
stdout: Satisfied

stdin: hey, is Amplitude (peak whole-cell current in presence of compound) for COc1ccc(NC(=O)c2c(-c3c(Cl)cccc3Cl)noc2C)c(OC)c1 lower than 200 pA or not?
stdout: Not satisfied

stdin: hey, is Amplitude (peak whole-cell current in presence of compound) for CSc1ccc(NC(=O)c2c(-c3c(Cl)cccc3Cl)noc2C)cc1 lower than 200 pA or not?
stdout: Satisfied

stdin: hey, is Amplitude (peak whole-cell current in presence of compound) for Cc1onc(-c2c(Cl)cccc2Cl)c1C(=O)Nc1ccc(C(C)(C)C)cc1 lower than 200 pA or not?
stdout: Not satisfied

stdin: hey, is Amplitude (peak whole-cell current in presence of compound) for Cc1onc(-c2c(Cl)cccc2Cl)c1C(=O)Nc1ccccc1 lower than 200 pA or not?
stdout: Not satisfied

stdin: hey, is Amplitude (peak whole-cell current in presence of compound) for COc1ccccc1Oc1ccc(NC(=O)c2c(-c3c(Cl)cccc3Cl)noc2C)cc1 lower than 200 pA or not?
stdout: Not satisfied

stdin: hey, is Amplitude (peak whole-cell current in presence of compound) for COc1ccc(NC(=O)c2c(-c3c(Cl)cccc3Cl)noc2C)cc1OC lower than 200 pA or not?
stdout: Not satisfied

stdin: hey, is Amplitude (peak whole-cell current in presence of compound) for COc1cc(NC(=O)c2c(-c3c(Cl)cccc3Cl)noc2C)cc(OC)c1 lower than 200 pA or not?
stdout: Not satisfied

stdin: hey, is Amplitude (peak whole-cell current in presence of compound) for Cc1onc(-c2c(F)cccc2Cl)c1C(=O)Nc1ccc(OC(F)(F)F)cc1 lower than 200 pA or not?
stdout: Not satisfied

Values were extracted from paper PMC11932207.
